Assay: qHTS assay to identify small molecule antagonists of the estrogen related receptor (ERR) signaling pathway from Tox21 library - cell viability counter screen (AID 1224834); further: nearly all actives have a fitted effect of over 30% in size
Details: ERR reporter cells viability, CellTiter-Fluor, 17.5 h; series mostly up to 92.4 µM
Results filed as inconclusive are left out. Activity calls are given as the source filed them. The call rests on the fitted dose curve; in most records, active means well fitted cell-killing curve with a large enough effect in the repeat runs; inconclusive means weak or mixed curves; inactive means flat fitted curve, though single readings scatter.
Classes used: Yes (active), No (inactive)

> print(dat)
                                    compound  group
 1                CCCCCCCCCc1ccc(OCCOCCO)cc1    Yes
 2            CN1CCN(C(c2ccccc2)c2ccccc2)CC1     No
 3                                     CCCCC     No
 4         CC1CCC(=O)C1=O (stereo not drawn)     No
 5  CCC(=O)O[C@]1(C(=O)CCl)[C@@H](C)C[C@H]2[C@@H]3CCC4=CC(=O)C=C[C@]4(C)[C@@]3(F)[C@@H](O)C[C@@]21C     No
 6  COc1cc2c(cc1OC)C(C(C(=O)N(CCc1ccc(OC)c(OC)c1OC)CCc1ccc(OC)c(OC)c1OC)c1ccccc1)=NCC2 (stereo not drawn)    Yes
 7  CCN(CC)CCOC(=O)C(c1ccccc1)C1CCCCC1 (stereo not drawn)    Yes
 8              CC(=O)c1cccc([N+](=O)[O-])c1     No
 9                       COc1cc(Cl)c(OC)cc1N     No
10        CC(C)(C)OCC1CO1 (stereo not drawn)     No
11          CC(COCCO)OCCO (stereo not drawn)     No
12     CC1OC(=O)C(C)OC1=O (stereo not drawn)     No
13  CC(=O)OC[C@H]1O[C@@H](n2ncc(=O)[nH]c2=O)[C@H](OC(C)=O)[C@@H]1OC(C)=O     No
14  C#C[C@]1(O)CC[C@H]2[C@@H]3CCc4cc(OC5CCCC5)ccc4[C@H]3CC[C@@]21C     No
15          O=[N+]([O-])c1ccc(NCCO)c(OCCO)c1    Yes
16          CCN(CC)CCNC(=O)c1cc(Br)c(N)cc1OC     No
17                O=C1C(O)=C(O)C(=O)C(O)=C1O     No
18  C[C@H]1C[C@H]2[C@@H]3CCC4=CC(=O)C=C[C@]4(C)[C@@]3(Cl)[C@@H](O)C[C@]2(C)[C@@]1(O)C(=O)CO     No
19                   C=CC(=O)OCCOCCOC(=O)C=C    Yes
20    COc1cccc(N(C)C(=S)Oc2ccc3c(c2)CCCC3)n1     No
21              O=P(O)(OCc1ccccc1)OCc1ccccc1     No
22                C#CCN(C)CCCOc1ccc(Cl)cc1Cl     No
23  CCCCC(=O)OCC(=O)[C@H]1[C@H](C)C[C@H]2[C@@H]3C[C@H](F)C4=CC(=O)C=C[C@]4(C)[C@@]3(F)[C@@H](O)C[C@@]21C     No
24  C[C@@H]1C[C@H]2[C@@H]3CCC4=CC(=O)C=C[C@]4(C)[C@@]3(F)[C@@H](O)C[C@]2(C)[C@@]1(O)C(=O)COC(=O)c1ccncc1     No
25  C=CCOc1ccccc1OCC(O)CNC(C)C (stereo not drawn)     No
26  CCCCCCOC(=O)NC(=N)c1ccc(NCc2nc3cc(C(=O)N(CCC(=O)OCC)c4ccccn4)ccc3n2C)cc1    Yes
27                            CCOc1ccc(O)cc1     No
28  CCC(Cl)CCC(Cl)C(Cl)CC(Cl)C(Cl)C(Cl)CCl (stereo not drawn)     No
29  OC(CN1CCC(Cc2ccc(F)cc2)CC1)c1ccc(Cl)cc1 (stereo not drawn)     No
30   O=S(c1cc(Cl)cc(Cl)c1O)c1cc(Cl)cc(Cl)c1O     No
31                              C/C=C/C=C/CO     No
32  C[N+](C)(C)CCOC(=O)CCC(=O)OCC[N+](C)(C)C     No
33                                  CC(=O)NO     No

###

Assay: A CellTox Green Cytotoxicity Assay to monitor cytotoxicity in HEK293 cells - 24 hour (AID 1224875); further: nearly all actives have a fitted effect of over 45% in size
Details: CellTox Green fluorescence; series mostly up to 76.8 µM
Results filed as inconclusive are left out. Activity calls are given as the source filed them. The call rests on the fitted dose curve; in most records, active means well fitted activation curve with a large enough effect in the repeat runs; inconclusive means weak or mixed curves; inactive means flat fitted curve, though single readings scatter.
Classes used: active, inactive

> print(dat)
                                    molecule     group
 1                    CC1=CC[C@H](C(C)C)C=C1  inactive
 2                       Cc1ccccc1S(=O)(=O)O  inactive
 3  CC(=O)c1ccc2c(c1)N(CCCN1CCC(CCO)CC1)c1ccccc1S2  inactive
 4  CCN(CC)c1ccc2c(-c3ccccc3C(=O)O)c3ccc(=[N+](CC)CC)cc-3oc2c1    active
 5  CCC(Cl)CCC(Cl)C(Cl)CC(Cl)C(Cl)C(Cl)CCl (stereo not drawn)  inactive
 6  CCO[C@H](Cc1ccc(OCCc2ccc(OS(C)(=O)=O)cc2)cc1)C(=O)O  inactive
 7                    CCC(CC)Nc1ccc(C)c(C)c1  inactive
 8                             OCCNCc1ccccc1  inactive
 9                Nc1ccccc1S(=O)(=O)c1ccccc1  inactive
10  C[C@@H](c1ncncc1F)C(O)(Cn1cncn1)c1ccc(F)cc1F (stereo partly drawn)  inactive
11        CC(C)(C)OCC1CO1 (stereo not drawn)  inactive
12  c1ccc(C(O[C@H]2CCCN(CCc3ccc4c(c3)OCO4)C2)c2ccccc2)cc1  inactive
13  CNC(=O)CN(CCN(CCN(CC(=O)[O-])CC(=O)NC)CC(=O)[O-])CC(=O)[O-].O.[Gd+3]  inactive
14                           NCC(=O)CCC(=O)O  inactive
15           CN(C)CCN(Cc1ccc(Cl)cc1)c1ccccn1  inactive
16  CCOCC(O)COc1ccc(NC(=O)CC[S+](C)C)cc1 (stereo not drawn)  inactive
17  COc1ccc(C(=O)N2CCN(CC(=O)N3CCOCC3)CC2)cc1  inactive
18             O=C(NCCO[N+](=O)[O-])c1cccnc1  inactive
19  CCN(CC)CCNc1ccc(CNC=O)c2sc3ccc(OC)cc3c(=O)c12  inactive
20             Cc1cc(C(=O)O)ccc1[N+](=O)[O-]  inactive
21  CC(=O)OC[C@H]1O[C@@H](n2ncc(=O)[nH]c2=O)[C@H](OC(C)=O)[C@@H]1OC(C)=O  inactive
22            Nc1ccc(N)c2c1C(=O)c1ccccc1C2=O  inactive
23                  Cc1c(N)cccc1[N+](=O)[O-]  inactive
24             C[Si](C)(CCCN)O[Si](C)(C)CCCN  inactive
25                        O=C(O)CC(=O)C(=O)O  inactive
26  O=C(c1ccc(F)cc1)C1CCN(CCn2c(=S)[nH]c3ccccc3c2=O)CC1  inactive
27  CO[C@@H]1[C@H](OC(=O)/C=C/C=C/C=C/C=C/C(=O)O)CC[C@]2(CO2)[C@H]1[C@@]1(C)O[C@@H]1CC=C(C)C  inactive
28                      Cc1cccc(Nc2ccccc2)c1    active
29                       c1ccc(-c2ccccn2)nc1  inactive
30        C=CC1CC2C=CC1C2 (stereo not drawn)  inactive
31  N=c1ccn2c(n1)O[C@H]1[C@H](O)[C@@H](CO)O[C@H]12  inactive
32  COCCCN1CCC(NC(=O)c2cc(Cl)c(N)c3c2OCC3)CC1  inactive
33                       COc1cc(Cl)c(OC)cc1N  inactive
34   O=S(c1cc(Cl)cc(Cl)c1O)c1cc(Cl)cc(Cl)c1O  inactive
35  C[C@@H]1C[C@H]2[C@@H]3CCC4=CC(=O)C=C[C@]4(C)[C@@]3(F)[C@@H](O)C[C@]2(C)[C@@]1(O)C(=O)COC(=O)c1ccncc1  inactive
36             C=CC(=O)OCCOCCOCCOCCOC(=O)C=C  inactive
37      Clc1ccc(Cn2c(CN3CCCC3)nc3ccccc32)cc1  inactive
38  C[N+]1(CC2COC(c3ccccc3)(C3CCCCC3)O2)CCCCC1 (stereo not drawn)  inactive
39          O=[N+]([O-])c1ccc(NCCO)c(OCCO)c1  inactive
40  Cc1nn(C)c(Oc2ccccc2)c1/C=N/OCc1ccc(C(=O)OC(C)(C)C)cc1  inactive
41  NC(=O)C(c1ccccc1)(c1ccccc1)[C@@H]1CCN(CCc2ccc3c(c2)CCO3)C1    active
42                           CCNc1cc(O)ccc1C    active
43  C#Cc1cccc(Nc2ncnc3cc(OCCOC)c(OCCOC)cc23)c1  inactive
